target-under-test: T1, recombinant human TIGIT (human, UniProt Q495A1 22-141, limits assumed)
T1 construct: recombinant human TIGIT used in Carterra SPR; also called hTIGIT
T1 sequence (looked up): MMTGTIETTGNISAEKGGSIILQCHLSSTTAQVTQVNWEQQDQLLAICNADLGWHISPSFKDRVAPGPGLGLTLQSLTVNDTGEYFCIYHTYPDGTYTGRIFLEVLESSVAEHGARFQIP
experiment-notes: SPR Carterra, average
outcome-measure: kon (M⁻¹ s⁻¹)
Give a bare numeral; the unit M⁻¹ s⁻¹ is implied.

- TIGIT-SC1 (Fc fusion, VHH-Fc fusion in assay) VHH: EVQLVESGGGLVQPGGSLRLSCAASGFTLNDYAMGWFRQAPGKERELVAWIARYDGSTLYADSVKGRFTISADNSKNTAYLQMNSLKPEDTAVYYCARVDWALNAAPFDYWGQGTLVTVSS: 246000

Moving on to another binder below.
// field: kon; key: TIGIT-SC205 (Fc fusion, VHH-Fc fusion in assay) VHH: EVQLVESGGGLVQPGGSLRLSCAASGFTFDRSWMGWFRQAPGKEREFVAAIWRSGTLKAYADSVKGRFTISADNGKNTAYLQMNSLKPEDTAVYYCAEGGTTAWGWFVPWGQGTLVTVSS ; value = 718000
